Reported half-life at 1 µM values for a set of compounds
Test: Half life in human liver microsomes at 1 uM by LC-MS/MS analysis

C[C@]12CC[C@H](O)CC1=CC[C@@H]1[C@@H]2CC[C@]2(C)C(c3cncc(N)c3)=CC[C@@H]12
≥ 50 min
C[C@]12CCCOCC1CCC1C2CC[C@]2(C)C(c3cccnc3)=CC[C@@H]12 (single isomer, unassigned)
1 to 10 min
CCc1cncc(C2=CC[C@H]3[C@@H]4CCN5C(=O)CCCC[C@]5(C)[C@H]4CC[C@]23C)c1
1 to 10 min
C[C@]12CCNC(=O)C=C1CC[C@@H]1[C@@H]2CC[C@]2(C)C(c3cncnc3)=CC[C@@H]12
1 to 10 min
C[C@]12C=CC(=O)C=C1C1(CC1)C[C@@H]1[C@@H]2CC[C@]2(C)C(c3cccnc3)=CC[C@@H]12
1 to 50 min
Cc1cncc(C2=CC[C@H]3[C@@H]4CC(O)C5CCCC[C@]5(C)[C@H]4CC[C@]23C)c1 (some centres undefined)
1 to 10 min

Q: Which half-life at 1 µM value is on record for `Cc1cn(C2=CC[C@H]3[C@@H]4CCC5=CC(=O)NCC[C@]5(C)[C@H]4CC[C@]23C)cn1` ?
A: 10 to 60 min

Q: Which half-life at 1 µM value is on record for `C=C1C[C@H]2C3=CC=C(c4cccnc4)[C@@]3(C)CC[C@@H]2[C@@]2(C)C=CC(=O)C=C12` ?
A: 1 to 50 min

Q: Which half-life at 1 µM value is on record for CC1C[C@H]2C3=CC=C(c4cccnc4)[C@@]3(C)CC[C@@H]2[C@@]2(C)C=CC(=O)C=C12 (some centres undefined) ?
A: 1 to 50 min

Q: Which half-life at 1 µM value is on record for `COc1cncc(C2=CC[C@H]3[C@@H]4CC[C@H]5CCOCC[C@]5(C)[C@H]4CC[C@]23C)c1` ?
A: 1 to 10 min

Q: Which half-life at 1 µM value is on record for `COc1cncc(C2=CC[C@H]3[C@@H]4CC=C5C[C@H](NC(=O)C6CC6)CC[C@]5(C)[C@H]4CC[C@]23C)c1` ?
A: 1 to 50 min

Q: Which half-life at 1 µM value is on record for `C[C@]12CC[C@H]3[C@@H](CCC4=CC(=O)CC[C@@]43C)C1=CC=C2c1cncc(F)c1` ?
A: 1 to 50 min

Q: Which half-life at 1 µM value is on record for `COc1cncc(C2=CC[C@H]3[C@@H]4CCC5=CC(=O)N(C)CC[C@]5(C)[C@H]4CC[C@]23C)c1` ?
A: 1 to 10 min

Q: Which half-life at 1 µM value is on record for `C[C@]12CCCCC[C@@H]1CC[C@@H]1[C@@H]2CC[C@]2(C)C(n3ccnc3)=CC[C@@H]12` ?
A: 10 to 60 min

Q: Which half-life at 1 µM value is on record for `C[C@]12CC[C@H](O)CC1=CC[C@@H]1[C@@H]2CC[C@]2(C)C(c3cncc(F)c3)=CC[C@@H]12` ?
A: ≥ 50 min

Q: Which half-life at 1 µM value is on record for `CN1C(=O)CCC[C@@]2(C)C1=CC[C@@H]1[C@@H]2CC[C@]2(C)C(c3cccnc3)=CC[C@@H]12` ?
A: 1 to 50 min

Q: Which half-life at 1 µM value is on record for `C[C@]12CC(=O)C[C@@H]1CC[C@@H]1[C@@H]2CC[C@]2(C)C(n3ccnc3)=CC[C@@H]12` ?
A: ≥ 50 min

Q: Which half-life at 1 µM value is on record for `CCc1cncc(C2=CC[C@H]3[C@@H]4CCN5CCCCC[C@]5(C)[C@H]4CC[C@]23C)c1` ?
A: 1 to 10 min

Q: Which half-life at 1 µM value is on record for `C[C@]12CCC(=O)C=C1C1(CC1)C[C@@H]1[C@@H]2CC[C@]2(C)C(c3cccnc3)=CC[C@@H]12` ?
A: 1 to 50 min

Q: Which half-life at 1 µM value is on record for CC[C@]1(O)CC[C@@]2(C)C(CC[C@@H]3[C@@H]2CC[C@]2(C)C(c4cccnc4)=CC[C@@H]32)C1 (some centres undefined) ?
A: 1 to 50 min

Q: Which half-life at 1 µM value is on record for C[C@]12CCC(=O)C=C1C1CC1[C@@H]1[C@@H]2CC[C@]2(C)C(c3cncc(F)c3)=CC[C@@H]12 (some centres undefined) ?
A: 1 to 50 min

Q: Which half-life at 1 µM value is on record for `C[C@]12CCOC(=O)C[C@@H]1CC[C@@H]1[C@@H]2CC[C@]2(C)C(c3cccnc3)=CC[C@@H]12` ?
A: 1 to 50 min

Q: Which half-life at 1 µM value is on record for CCC1C[C@H]2C3=CC=C(c4cccnc4)[C@@]3(C)CC[C@@H]2[C@@]2(C)CCC(=O)C=C12 (some centres undefined) ?
A: 1 to 50 min

Q: Which half-life at 1 µM value is on record for `C[C@]12CCNC(=O)C=C1CC[C@@H]1[C@@H]2CC[C@]2(C)C(c3cnccn3)=CC[C@@H]12` ?
A: 1 to 10 min

Q: Which half-life at 1 µM value is on record for CN1C(=O)COC[C@@]2(C)C1CC[C@@H]1[C@@H]2CC[C@]2(C)C(c3cccnc3)=CC[C@@H]12 (some centres undefined) ?
A: 1 to 10 min

Q: Which half-life at 1 µM value is on record for `C[C@]12CCCC(=O)CC1=CC[C@@H]1[C@@H]2CC[C@]2(C)C(c3cnccn3)=CC[C@@H]12` ?
A: 1 to 50 min

Q: Which half-life at 1 µM value is on record for `CN1CC[C@@]2(C)C(=CC1=O)CC[C@@H]1[C@@H]2CC[C@]2(C)C(n3ccnc3)=CC[C@@H]12` ?
A: 1 to 50 min

Q: Which half-life at 1 µM value is on record for `C[C@]12CC[C@H]3[C@@H](CCN4C(=O)CC=CC[C@]34C)[C@@H]1CC=C2c1cccnc1` ?
A: 1 to 10 min

Q: Which half-life at 1 µM value is on record for `C[C@]12CC[C@H]3[C@@H](CC=C4C[C@@H](O)CC[C@@]43C)C1=CC=C2n1ccnc1` ?
A: ≥ 50 min
